- Test system: Bacillus subtilis
- protocol text: Antimicrobial activity against Bacillus subtilis ATCC 6633
- Type: functional
measurement label: MIC (µg/mL)
Report as a plain number; the unit µg/mL is understood.

What the record says about "O=C(O)c1cn(C2CC2)c2cc(N3CCNCC3)c(F)cc2c1=O" : MIC is 0.25

The compound CCCCC/C=C/C/C=C/CCCCCCCC(=O)OCC(CO[C@@H]1O[C@H](CO)[C@@H](O)[C@H](O)[C@H]1O)OC(=O)CCCCCCC/C=C/C/C=C/CCCCC (mixture of isomers) showed MIC equal to 128

// field: MIC; key: CCCCC/C=C/C/C=C/CCCCCCCC(=O)OC(COC(=O)CCCCCCC)CO[C@@H]1O[C@H](CO)[C@@H](O)[C@H](O)[C@H]1O (mixture of isomers) ; value = 128

Field MIC (entry CCCCCCCC(=O)OCC(CO[C@@H]1O[C@H](CO)[C@@H](O)[C@H](O)[C@H]1O)OC(=O)CCCCCCC (mixture of isomers) ) reads 16

// MIC lookup, compound = CCCCC/C=C/C/C=C/CCCCCCCC(=O)OC(COC(=O)CCCCCCCCC)CO[C@@H]1O[C@H](CO)[C@@H](O)[C@H](O)[C@H]1O (mixture of isomers) , result: 128

Documented MIC of CC/C=C/C/C=C/C/C=C/CCCCCCCC(=O)OC(COC(=O)CCCCCCC)CO[C@@H]1O[C@H](CO)[C@@H](O)[C@H](O)[C@H]1O (mixture of isomers) : 128

* * *

- Tested on: Bacillus subtilis
- protocol text: Antimicrobial activity against Bacillus subtilis ATCC 6633
- Type: functional
measurement label: MIC

MIC for CCCCCCCC/C=C/CCCCCCCC(=O)OC(COC(=O)CCCCCCC)CO[C@@H]1O[C@H](CO)[C@@H](O)[C@H](O)[C@H]1O (mixture of isomers) is 128 µg/mL

For reference, reported MIC for CCCCCCCCCCCCCCCCCC(=O)OCC(CO[C@@H]1O[C@H](CO)[C@@H](O)[C@H](O)[C@H]1O)OC(=O)CCCCCCCCCCCCCCCCC (mixture of isomers) stands at > 128 µg/mL

Item: CCCCCCCCCCCC(=O)OCC(CO[C@@H]1O[C@H](CO)[C@@H](O)[C@H](O)[C@H]1O)OC(=O)CCCCCCCCCCC (mixture of isomers) | MIC: > 128 µg/mL

The compound CC/C=C/C/C=C/C/C=C/CCCCCCCC(=O)OC(COC(=O)CCCCCCCCC)CO[C@@H]1O[C@H](CO)[C@@H](O)[C@H](O)[C@H]1O (mixture of isomers) showed MIC equal to > 128 µg/mL

Short answer for CCCCCCCC/C=C/CCCCCCCC(=O)OC(COC(=O)CCCCCCCCC)CO[C@@H]1O[C@H](CO)[C@@H](O)[C@H](O)[C@H]1O (mixture of isomers) : MIC was 32 µg/mL

The compound identified as CCCCCCCCCC(=O)OCC(CO[C@@H]1O[C@H](CO)[C@@H](O)[C@H](O)[C@H]1O)OC(=O)CCCCCCCCC (mixture of isomers) registered its MIC at > 128 µg/mL

* * *

Field: MIC. Provide a value for each of the compounds that follow.
- Test system: Staphylococcus aureus
- protocol text: Antimicrobial activity against Staphylococcus aureus 85
- Type: functional

CCCCCCCC/C=C/CCCCCCCC(=O)OC(COC(=O)CCCCCCCCC)CO[C@@H]1O[C@H](CO)[C@@H](O)[C@H](O)[C@H]1O (mixture of isomers) yielded MIC of 128 µg/mL

Entry CC/C=C/C/C=C/C/C=C/CCCCCCCC(=O)OCC(CO[C@@H]1O[C@H](CO)[C@@H](O)[C@H](O)[C@H]1O)OC(=O)CCCCCCC/C=C/C/C=C/C/C=C/CC (stereo partly drawn) , MIC reported as > 128 µg/mL

// MIC value for CC/C=C/C/C=C/C/C=C/CCCCCCCC(=O)OC(COC(=O)CCCCCCC)CO[C@@H]1O[C@H](CO)[C@@H](O)[C@H](O)[C@H]1O (mixture of isomers) : > 128 µg/mL

* * *

- Test system: Mycobacterium tuberculosis
- protocol text: Antimicrobial activity against Mycobacterium tuberculosis H190
- Type: functional
measurement label: MIC

So, CCCCC/C=C/C/C=C/CCCCCCCC(=O)OC(COC(=O)CCCCCCCCC)CO[C@@H]1O[C@H](CO)[C@@H](O)[C@H](O)[C@H]1O (mixture of isomers) ? Its MIC was > 128 µg/mL

Field MIC (entry CCCCCCCCCCCC(=O)OCC(CO[C@@H]1O[C@H](CO)[C@@H](O)[C@H](O)[C@H]1O)OC(=O)CCCCCCCCCCC (mixture of isomers) ) reads > 128 µg/mL

Quick note, MIC for CC/C=C/C/C=C/C/C=C/CCCCCCCC(=O)OCC(CO[C@@H]1O[C@H](CO)[C@@H](O)[C@H](O)[C@H]1O)OC(=O)CCCCCCC/C=C/C/C=C/C/C=C/CC (stereo partly drawn) landed at > 128 µg/mL

* * *

- Tested on: Staphylococcus aureus
- protocol text: Antimicrobial activity against Staphylococcus aureus 85
- Type: functional
I'd appreciate it if you could supply MIC values for the items below.

Lab note: CCCCCCCCCC(=O)OCC(CO[C@@H]1O[C@H](CO)[C@@H](O)[C@H](O)[C@H]1O)OC(=O)CCCCCCCCC (mixture of isomers) gave MIC of > 128 µg/mL

Lab note: CCCCCCCC/C=C/CCCCCCCC(=O)OC(COC(=O)CCCCCCC)CO[C@@H]1O[C@H](CO)[C@@H](O)[C@H](O)[C@H]1O (mixture of isomers) gave MIC of > 128 µg/mL

What the record says about "O=C(O)c1cn(C2CC2)c2cc(N3CCNCC3)c(F)cc2c1=O" : MIC is 0.5 µg/mL

Input CCCCC/C=C/C/C=C/CCCCCCCC(=O)OC(COC(=O)CCCCCCC)CO[C@@H]1O[C@H](CO)[C@@H](O)[C@H](O)[C@H]1O (mixture of isomers) . Output MIC: > 128 µg/mL

Measured MIC of CCCCC/C=C/C/C=C/CCCCCCCC(=O)OCC(CO[C@@H]1O[C@H](CO)[C@@H](O)[C@H](O)[C@H]1O)OC(=O)CCCCCCC/C=C/C/C=C/CCCCC (mixture of isomers) : > 128 µg/mL

Field MIC (entry CCCCCCCC(=O)OCC(CO[C@@H]1O[C@H](CO)[C@@H](O)[C@H](O)[C@H]1O)OC(=O)CCCCCCC (mixture of isomers) ) reads 16 µg/mL

The measured MIC associated with CCCCCCCCCCCC(=O)OCC(CO[C@@H]1O[C@H](CO)[C@@H](O)[C@H](O)[C@H]1O)OC(=O)CCCCCCCCCCC (mixture of isomers) reads > 128 µg/mL

Memo: CC/C=C/C/C=C/C/C=C/CCCCCCCC(=O)OC(COC(=O)CCCCCCCCC)CO[C@@H]1O[C@H](CO)[C@@H](O)[C@H](O)[C@H]1O (mixture of isomers) , reported MIC: 64 µg/mL

Field MIC (entry CCCCCCCC/C=C/CCCCCCCC(=O)OCC(CO[C@@H]1O[C@H](CO)[C@@H](O)[C@H](O)[C@H]1O)OC(=O)CCCCCCC/C=C/CCCCCCCC (mixture of isomers) ) reads > 128 µg/mL

The reported value for CCCCCCCCCCCCCC(=O)OCC(CO[C@@H]1O[C@H](CO)[C@@H](O)[C@H](O)[C@H]1O)OC(=O)CCCCCCCCCCCCC (some centres not stated) in terms of MIC is > 128 µg/mL

What the record says about CCCCC/C=C/C/C=C/CCCCCCCC(=O)OC(COC(=O)CCCCCCCCC)CO[C@@H]1O[C@H](CO)[C@@H](O)[C@H](O)[C@H]1O (mixture of isomers) : MIC is 32 µg/mL

Entry under test: CCCCCCCCCCCCCCCCCC(=O)OCC(CO[C@@H]1O[C@H](CO)[C@@H](O)[C@H](O)[C@H]1O)OC(=O)CCCCCCCCCCCCCCCCC (mixture of isomers) . Its MIC was > 128 µg/mL

* * *

- Test system: Staphylococcus aureus
- protocol text: Antimicrobial activity against Staphylococcus aureus ATCC 25923
- Assay type: functional
Would you mind telling me the reported MIC of each entry?

Reported Staphylococcus aureus MIC for item CCCCC/C=C/C/C=C/CCCCCCCC(=O)OC(COC(=O)CCCCCCC)CO[C@@H]1O[C@H](CO)[C@@H](O)[C@H](O)[C@H]1O (mixture of isomers) was > 128 µg/mL

Record CCCCCCCC(=O)OCC(CO[C@@H]1O[C@H](CO)[C@@H](O)[C@H](O)[C@H]1O)OC(=O)CCCCCCC (mixture of isomers) / Staphylococcus aureus, MIC recorded as 16 µg/mL

Record for CCCCCCCCCCCCCCCCCC(=O)OCC(CO[C@@H]1O[C@H](CO)[C@@H](O)[C@H](O)[C@H]1O)OC(=O)CCCCCCCCCCCCCCCCC (mixture of isomers) under target or system Staphylococcus aureus: MIC reported as > 128 µg/mL
